Ref: ChEMBL document CHEMBL1155519

Parameter solubility kinetic: see the listing below.
Test: Aqueous solubility by turbidimetric analysis
Format: physicochemical
Value Type: solubility kinetic (µM)

- Cc1nc(N)sc1-c1ccnc(Nc2ccc(N3CCOCC3)cc2)n1: 10.5
- Cc1nc(C)c(-c2ccnc(Nc3ccc(N(C)C)cc3)n2)s1: 20
